subject_of_test: Angiopoietin-1 receptor (Homo sapiens) (UniProt Q02763)
Sequence (Q02763 whole entry): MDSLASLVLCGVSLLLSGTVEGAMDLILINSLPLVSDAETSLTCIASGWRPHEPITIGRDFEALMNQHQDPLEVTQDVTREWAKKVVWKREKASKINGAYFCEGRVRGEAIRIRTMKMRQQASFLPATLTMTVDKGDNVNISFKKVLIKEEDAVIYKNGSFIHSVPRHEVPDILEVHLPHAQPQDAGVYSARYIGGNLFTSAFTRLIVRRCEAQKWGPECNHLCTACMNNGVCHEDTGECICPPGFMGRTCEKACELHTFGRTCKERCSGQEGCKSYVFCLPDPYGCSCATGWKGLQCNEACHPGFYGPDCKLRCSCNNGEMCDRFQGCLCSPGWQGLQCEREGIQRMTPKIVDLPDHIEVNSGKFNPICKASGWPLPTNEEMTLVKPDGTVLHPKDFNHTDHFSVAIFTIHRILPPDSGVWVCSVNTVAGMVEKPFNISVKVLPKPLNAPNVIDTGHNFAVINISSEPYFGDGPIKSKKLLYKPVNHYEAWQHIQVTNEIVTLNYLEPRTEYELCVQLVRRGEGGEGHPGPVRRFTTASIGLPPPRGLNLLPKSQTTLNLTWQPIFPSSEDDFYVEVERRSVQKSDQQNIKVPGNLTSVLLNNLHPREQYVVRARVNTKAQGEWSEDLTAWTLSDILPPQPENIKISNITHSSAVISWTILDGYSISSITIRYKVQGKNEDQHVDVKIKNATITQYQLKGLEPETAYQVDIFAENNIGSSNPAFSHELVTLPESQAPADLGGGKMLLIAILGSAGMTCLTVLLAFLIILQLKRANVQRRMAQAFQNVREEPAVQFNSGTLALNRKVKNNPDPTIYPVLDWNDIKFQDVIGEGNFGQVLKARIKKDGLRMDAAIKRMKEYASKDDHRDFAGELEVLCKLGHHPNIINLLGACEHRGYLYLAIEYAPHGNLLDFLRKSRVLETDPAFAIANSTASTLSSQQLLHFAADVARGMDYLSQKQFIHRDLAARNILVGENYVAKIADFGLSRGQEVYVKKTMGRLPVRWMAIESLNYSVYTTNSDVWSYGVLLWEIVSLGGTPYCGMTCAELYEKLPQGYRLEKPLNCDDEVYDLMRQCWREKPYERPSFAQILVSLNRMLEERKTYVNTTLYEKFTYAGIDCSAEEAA
cond: at 10 µM
Categories are assigned from the measured residual activity using these intervals: label 0 (below 40%), label 1 (40% to below 60%), label 2 (60% or more)

>>> label_value("O=C1c2ccccc2-c2nc3nnnn3nc21")
"label 0"
>>> label_value("CCn1cnc2c(Nc3cccc(Cl)c3)nc(N[C@@H]3CCCC[C@@H]3N)nc21")
"label 1"
>>> label_value("CCc1nc(-c2ccc(OC)cc2)[nH]c1-c1ccncc1")
"label 2"
>>> label_value("c1cc(-c2cnn3cc(-c4ccc(OCCN5CCCCC5)cc4)cnc23)ccn1")
"label 1"
>>> label_value("N/C(=N\\[N+](=O)[O-])N/N=C\\c1ccc(-c2cccc([N+](=O)[O-])c2)o1")
"label 2"
>>> label_value("O=C1Nc2ccc3ncsc3c2/C1=C/c1c[nH]cn1")
"label 0"
>>> label_value("COc1ccc2c(c[n+](C)c3c4cc5c(cc4ccc23)OCO5)c1OC")
"label 0"
>>> label_value("COc1cc2ncnc(Nc3ccc(OCc4ccccc4)cc3)c2cc1OC")
"label 2"

Values from ChEMBL document CHEMBL2218924
